Catalogue of melting point values

Examples with answers:
[[record]]
smiles_code = "CCOCCOC(=O)O[C@H](c1ccc(S(C)(=O)=O)cc1)[C@@H](CF)NC(=O)C(Cl)Cl"
experimental_value = "88 to 90 °C"

[[record]]
smiles_code = "CS(=O)(=O)c1ccc([C@@H](OC(=O)OCc2ccccc2)[C@@H](CF)NC(=O)C(Cl)Cl)cc1"
experimental_value = "105 to 106 °C"

[[record]]
smiles_code = "CCOC(=O)[C@H](C)OC(=O)O[C@H](c1ccc(S(C)(=O)=O)cc1)[C@@H](CF)NC(=O)C(Cl)Cl"
experimental_value = "44 to 54 °C"

[[record]]
smiles_code = "CS(=O)(=O)c1ccc([C@@H](OC(=O)OCC2CC2)[C@@H](CF)NC(=O)C(Cl)Cl)cc1"
experimental_value = "132 to 134 °C"

[[record]]
smiles_code = "CC(C)COC(=O)O[C@H](c1ccc(S(C)(=O)=O)cc1)[C@@H](CF)NC(=O)C(Cl)Cl"
experimental_value = "156 to 158 °C"

[[record]]
smiles_code = "CS(=O)(=O)c1ccc([C@@H](OC(=O)OCCOC(=O)O[C@H](c2ccc(S(C)(=O)=O)cc2)[C@@H](CF)NC(=O)C(Cl)Cl)[C@@H](CF)NC(=O)C(Cl)Cl)cc1"
experimental_value = "110 to 112 °C"

[[record]]
smiles_code = "CC(C)CCOC(=O)O[C@H](c1ccc(S(C)(=O)=O)cc1)[C@@H](CF)NC(=O)C(Cl)Cl"
experimental_value = "120 to 122 °C"

[[record]]
smiles_code = "CC(C)OC(=O)O[C@H](c1ccc(S(C)(=O)=O)cc1)[C@@H](CF)NC(=O)C(Cl)Cl"
experimental_value = "148 to 150 °C"


Next molecule, melting point to be filled in.
*Q* Which melting point reading was recorded for the molecule CCOC(=O)O[C@H](c1ccc(S(C)(=O)=O)cc1)[C@@H](CF)NC(=O)C(Cl)Cl ?
*A* 110 to 112 °C

###

- Experimental Protocol: Aqueous solubility
- Format: physicochemical
- Condition Set: aqueous medium (not further specified)
Measurement Type: solubility (µg/mL)

Examples with answers:
[[record]]
compound = "CCOC(=O)O[C@H](c1ccc(S(C)(=O)=O)cc1)[C@@H](CF)NC(=O)C(Cl)Cl [Example 2]"
measurement_type = "solubility"
unit_annotation = "µg/mL"
experimental_value = 690

[[record]]
compound = "COCCOC(=O)O[C@H](c1ccc(S(C)(=O)=O)cc1)[C@@H](CF)NC(=O)C(Cl)Cl [Example 11]"
measurement_type = "solubility"
unit_annotation = "µg/mL"
experimental_value = 770


P: CC(C)COC(=O)O[C@H](c1ccc(S(C)(=O)=O)cc1)[C@@H](CF)NC(=O)C(Cl)Cl [Example 5]
Q: CCOCCOC(=O)O[C@H](c1ccc(S(C)(=O)=O)cc1)[C@@H](CF)NC(=O)C(Cl)Cl [Example 12]
R: CS(=O)(=O)c1ccc([C@@H](OC(=O)OCc2ccccc2)[C@@H](CF)NC(=O)C(Cl)Cl)cc1 [Example 14]
S: CC(C)OC(=O)O[C@H](c1ccc(S(C)(=O)=O)cc1)[C@@H](CF)NC(=O)C(Cl)Cl [Example 4]
T: CS(=O)(=O)c1ccc([C@@H](O)[C@@H](CF)NC(=O)C(Cl)Cl)cc1 [Florfenicol, reference compound]
*Q* In this exercise, place the 5 compounds in ascending sequence of their recorded solubility. Thanks in advance for listing the labels in the requested order.
*A* P, R, S, Q, T
(P: 7 µg/mL, R: 32 µg/mL, S: 100 µg/mL, Q: 350 µg/mL, T: 1530 µg/mL)

P: CS(=O)(=O)c1ccc([C@@H](OC(=O)OCC2CC2)[C@@H](CF)NC(=O)C(Cl)Cl)cc1 [Example 6]
Q: CC(C)CCOC(=O)O[C@H](c1ccc(S(C)(=O)=O)cc1)[C@@H](CF)NC(=O)C(Cl)Cl [Example 8]
R: CS(=O)(=O)c1ccc([C@@H](OC(=O)OCCOC(=O)O[C@H](c2ccc(S(C)(=O)=O)cc2)[C@@H](CF)NC(=O)C(Cl)Cl)[C@@H](CF)NC(=O)C(Cl)Cl)cc1 [Example 26]
S: CCOC(=O)[C@H](C)OC(=O)O[C@H](c1ccc(S(C)(=O)=O)cc1)[C@@H](CF)NC(=O)C(Cl)Cl [Example 17]
*Q* In this exercise, place the 4 compounds in ascending sequence of their recorded solubility. Thanks in advance for listing the labels in the requested order.
*A* Q, R, P, S
